# SUBJECT OF TEST: acetylcholine receptor
# RUN DESCRIPTION: SPR, AchR immobilized on CM5 chip, peptide at 10 µM
Binding affinity (RU) below 60 RU gives rule not met; Binding affinity (RU) at or above it gives rule met.

>>> label_class("RGVCR [5mer-128]")
"rule not met"
>>> label_class("RRLLR [5mer-135]")
"rule met"
>>> label_class("KWICK [5mer-422]")
"rule met"
>>> label_class("RQIRK [5mer-448]")
"rule met"
>>> label_class("KWRLR [5mer-140]")
"rule met"
>>> label_class("RQFLK [5mer-428]")
"rule met"
>>> label_class("KWQLK [5mer-108]")
"rule met"
>>> label_class("RWRTR [5mer-418]")
"rule not met"

Every entry's value here was drawn from patent US20250011363A1.
